Origin of the recorded values: patent US20180099931A1

- testedTarget: F508delCFTR (Homo sapiens, UniProt P13569, DEL508-508)
- Construct: expressed in transfected cells; host or cells: CFBE41o- human lung-derived epithelial cells (CFBE4lo-F508delCFTR-HRP), doxycycline-inducible
- Sequence (P13569 with tags, fused parts or gaps DEL508-508): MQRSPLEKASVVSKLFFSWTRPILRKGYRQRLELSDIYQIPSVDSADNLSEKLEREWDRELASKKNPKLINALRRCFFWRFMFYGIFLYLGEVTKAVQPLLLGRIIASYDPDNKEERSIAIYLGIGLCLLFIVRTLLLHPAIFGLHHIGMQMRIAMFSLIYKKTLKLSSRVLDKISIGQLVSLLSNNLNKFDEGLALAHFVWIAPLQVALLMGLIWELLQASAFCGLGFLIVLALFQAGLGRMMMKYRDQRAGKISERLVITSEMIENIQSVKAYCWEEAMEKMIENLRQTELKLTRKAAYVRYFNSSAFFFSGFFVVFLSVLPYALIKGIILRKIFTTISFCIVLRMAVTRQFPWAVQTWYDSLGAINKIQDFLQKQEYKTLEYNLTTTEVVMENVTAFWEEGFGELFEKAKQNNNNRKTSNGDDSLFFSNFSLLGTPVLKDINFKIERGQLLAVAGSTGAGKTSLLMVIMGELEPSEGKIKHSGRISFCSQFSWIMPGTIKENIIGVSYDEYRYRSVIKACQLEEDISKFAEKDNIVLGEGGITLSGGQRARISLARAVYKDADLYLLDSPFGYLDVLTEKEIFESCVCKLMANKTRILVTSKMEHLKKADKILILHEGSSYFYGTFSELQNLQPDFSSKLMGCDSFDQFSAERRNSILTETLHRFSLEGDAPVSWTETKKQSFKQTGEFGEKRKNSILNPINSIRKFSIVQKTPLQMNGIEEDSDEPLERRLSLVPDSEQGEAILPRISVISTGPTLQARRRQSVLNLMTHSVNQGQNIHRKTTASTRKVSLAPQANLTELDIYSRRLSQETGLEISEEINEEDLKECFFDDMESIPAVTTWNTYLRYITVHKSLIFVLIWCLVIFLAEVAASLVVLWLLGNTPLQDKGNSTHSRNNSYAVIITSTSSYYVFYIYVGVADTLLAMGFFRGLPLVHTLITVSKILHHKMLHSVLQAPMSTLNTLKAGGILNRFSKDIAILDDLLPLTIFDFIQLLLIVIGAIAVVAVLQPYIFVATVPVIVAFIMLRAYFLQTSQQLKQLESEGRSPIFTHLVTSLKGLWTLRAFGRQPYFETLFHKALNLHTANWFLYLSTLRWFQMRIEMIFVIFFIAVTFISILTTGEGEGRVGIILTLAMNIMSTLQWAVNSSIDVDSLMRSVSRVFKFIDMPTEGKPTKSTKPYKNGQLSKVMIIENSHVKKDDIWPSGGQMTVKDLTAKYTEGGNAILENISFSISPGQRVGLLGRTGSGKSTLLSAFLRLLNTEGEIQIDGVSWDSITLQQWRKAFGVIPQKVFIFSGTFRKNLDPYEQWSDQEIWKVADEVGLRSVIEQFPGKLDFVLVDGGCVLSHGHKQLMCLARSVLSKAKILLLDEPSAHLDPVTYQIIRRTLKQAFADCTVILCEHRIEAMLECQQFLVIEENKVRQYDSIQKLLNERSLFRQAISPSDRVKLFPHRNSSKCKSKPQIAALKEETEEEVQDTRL
- method: Cell Surface Expression-Horse Radish Peroxidase (CSE-HRP) Assay;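 as to Maximum % activity (with co-corrector): co-corrector and positive control are both the same reference corrector at 2 µM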
- Format: cell-based
- assayContext: CSE-HRP; with co-corrector (2 μM); maximum at any tested concentration, normalized to on-plate positive control
endpointLabel: Maximum % activity (with co-corrector)

molecule="COc1cc(C(F)(F)F)ccc1CN[C@H]1[C@H](C(C)(C)C)[C@@H](C(=O)O)N(C(=O)C2CCCC(F)(F)C2)[C@H]1c1cccnc1OC (relative stereo)" testedtarget="F508delCFTR (Homo sapiens, UniProt P13569, DEL508-508)" result="+++ (≥350)"
molecule="COc1cc(F)ccc1CN[C@@H]1[C@@H](C(C)(C)C)[C@H](C(=O)O)N(C(=O)OC(C)C)[C@@H]1c1ccccc1 (racemic)" testedtarget="F508delCFTR (Homo sapiens, UniProt P13569, DEL508-508)" result="+++ (≥350)"

----------
Give Emax for every item shown.
- testedTarget: F508delCFTR (Homo sapiens, UniProt P13569, DEL508-508)
- Construct: expressed in transfected cells; host or cells: CFBE41o- human lung-derived epithelial cells (CFBE4lo-F508delCFTR-HRP), doxycycline-inducible
- method: Cell Surface Expression-Horse Radish Peroxidase (CSE-HRP) Assay;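 as to Maximum % activity (without co-corrector): percent of the 2 µM on-plate positive control corrector response above DMSO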
- Format: cell-based
- assayContext: CSE-HRP; without co-corrector; maximum at any tested concentration, normalized to on-plate positive control; read-out: Maximum % activity (without co-corrector)

Param item = COc1ccc(C(F)(F)F)cc1CN[C@H]1[C@H](C(C)(C)C)[C@@H](C(=O)O)N(C(=O)C2Cc3ccccc3CO2)[C@H]1c1ccccc1 (stereo partly drawn) [II-299] ; retrieve measured Emax. 100 to 200%

Param item = COc1cc(C(F)(F)F)ccc1CN[C@@H]1[C@@H](C(C)(C)C)[C@H](C(=O)O)N(C(=O)C(C)c2ccccc2)[C@@H]1c1ccccc1 (single isomer, unassigned) [II-80] ; retrieve measured Emax. 100 to 200%

Param item = COc1ccc(Cl)cc1CN[C@H]1[C@H](C(C)(C)C)[C@@H](C(=O)O)N(C(=O)C2CCCCC2)[C@H]1c1cccnc1C [II-95] ; retrieve measured Emax. < 100%

Param item = COc1ccc(C(C)(C)C)cc1CN[C@H]1[C@H](C(C)(C)C)[C@@H](C(=O)O)N(C(=O)Cc2ccc(F)cc2)[C@H]1c1ccccc1 [II-181] ; retrieve measured Emax. 100 to 200%

Param item = COc1cc(Cl)ccc1CN[C@@H]1[C@@H](C(C)(C)C)[C@H](C(=O)O)N(C(=O)OC(C)C)[C@@H]1c1cccnc1N(C)C (racemic) [II-29] ; retrieve measured Emax. > 200%

Param item = COc1ccc(C(C)(C)C)cc1CN[C@H]1[C@H](C(C)(C)C)[C@@H](C(=O)O)N(C(=O)Cc2cccc(O)c2)[C@H]1c1ccccc1 [II-196] ; retrieve measured Emax. > 200%

Param item = COc1ccc(C(C)(C)C)cc1CN[C@H]1[C@H](C(C)(C)C)[C@@H](C(=O)O)N(C(=O)Cc2cccc(C)c2)[C@H]1c1ccccc1 [II-203] ; retrieve measured Emax. 100 to 200%

Param item = CC(C)(C)[C@@H]1[C@@H](NCc2cc(Cl)ccc2OC(F)F)[C@@H](c2ccccc2)N(C(=O)C2CCCCC2)[C@H]1C(=O)O (racemic) [II-8] ; retrieve measured Emax. < 100%

Param item = COc1ccc(C(C)(C)C)cc1CN[C@H]1[C@H](C(C)(C)C)[C@@H](C(=O)O)N(C(=O)Cc2ccc(O)cc2)[C@H]1c1ccccc1 [II-195] ; retrieve measured Emax. > 200%

Param item = COc1ccc(C(C)(C)C)cc1CN[C@H]1[C@H](C(C)(C)C)[C@@H](C(=O)O)N(C(=O)C2Cc3ccccc3S2)[C@H]1c1ccccc1 (stereo partly drawn) [II-314] ; retrieve measured Emax. > 200%

Param item = COc1ncc(C(F)(F)F)cc1CN[C@H]1[C@H](C(C)(C)C)[C@@H](C(=O)O)N(C(=O)[C@H]2C[C@@H]3CC[C@H]2O3)[C@H]1c1ccccc1C(C)C (relative stereo) [Example I-270] ; retrieve measured Emax. > 200%

Param item = COc1ccc(C(C)(C)C)cc1CN[C@H]1[C@H](C(C)(C)C)[C@@H](C(=O)O)N(C(=O)Cc2nn(C)c(=O)c3ccccc23)[C@H]1c1ccccc1 [II-221] ; retrieve measured Emax. 100 to 200%

----------
Give Emax for every item shown.
- testedTarget: F508delCFTR (Homo sapiens, UniProt P13569, DEL508-508)
- Construct: expressed in transfected cells; host or cells: CFBE41o- human lung-derived epithelial cells (CFBE4lo-F508delCFTR-HRP), doxycycline-inducible
- method: Cell Surface Expression-Horse Radish Peroxidase (CSE-HRP) Assay;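 as to Maximum % activity (without co-corrector): percent of the 2 µM on-plate positive control corrector response above DMSO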
- Type: cell-based
- assayContext: test compound without co-corrector; maximum at any tested concentration, normalized to on-plate positive control; read-out: Maximum % activity (without co-corrector)
- Protocol: Cell Surface Expression-Horse Radish Peroxidase (CSE-HRP) Assay The development was achieved by expressing the F508delCFTR mutation along with a horseradish peroxidase (HRP) in the fourth exofacial loop, and then measuring the HRP activity using luminescence readout from these cells, CFBE4lo-F508delCFTR-HRP, that were incubated overnight with the test corrector compounds, either without or with the co-corrector. […] The raw counts from the experiment were analyzed using Accelrys® Assay Explorer v3.3. […]

What value of Emax on F508delCFTR (Homo sapiens, UniProt P13569, DEL508-508) does CC(C)(C)[C@H]1[C@H](NCc2ccc(C(F)(F)F)cc2)[C@H](c2ccccc2)N(C(=O)C2CCCCC2)[C@@H]1C(=O)O [III-138] have? < 100%

What value of Emax on F508delCFTR (Homo sapiens, UniProt P13569, DEL508-508) does COc1ccc(C(C)(C)C)cc1CN[C@H]1[C@H](C(C)(C)C)[C@@H](C(=O)O)N(C(=O)C2CCCCC2)[C@H]1c1ccccc1C [II-576] have? > 200%

What value of Emax on F508delCFTR (Homo sapiens, UniProt P13569, DEL508-508) does COc1cc(OC)c(CN[C@@H]2[C@@H](C(C)(C)C)[C@H](C(=O)O)N(C(=O)C3CCCCC3)[C@@H]2c2ccccc2)cc1Cl (racemic) [III-20] have? < 100%

What value of Emax on F508delCFTR (Homo sapiens, UniProt P13569, DEL508-508) does COc1ccc(C(C)(C)C)cc1CN[C@H]1[C@H](C23CC(C2)C3)[C@@H](C(=O)O)N(C(=O)OC(C)C)[C@H]1c1ccccc1F [III-222] have? 100 to 200%

What value of Emax on F508delCFTR (Homo sapiens, UniProt P13569, DEL508-508) does COc1ncc(C(F)(F)F)cc1CN[C@H]1[C@H](C(C)(C)C)[C@@H](C(=O)O)N(C(=O)C2CCc3ccc(F)cc3O2)[C@H]1c1ccccc1 (stereo partly drawn) [II-435] have? < 100%

What value of Emax on F508delCFTR (Homo sapiens, UniProt P13569, DEL508-508) does COc1ccc(C(C)(C)C)cc1CN[C@H]1[C@H](C(C)(C)C)[C@@H](C(=O)O)N(C(=O)[C@@H]2C[C@H]3CC[C@@H]2O3)[C@H]1c1cccnc1OC (relative stereo) [II-522] have? < 100%

----------
- testedTarget: F508delCFTR (Homo sapiens, UniProt P13569, DEL508-508)
- Construct: expressed in transfected cells; host or cells: CFBE41o- human lung-derived epithelial cells (CFBE4lo-F508delCFTR-HRP), doxycycline-inducible
- method: Cell Surface Expression-Horse Radish Peroxidase (CSE-HRP) Assay
- Assay type: cell-based
- assayContext: with co-corrector (2 μM of 3-[(2R,4R)-4-({[1-(2,2-difluoro-1,3-benzodioxol-5-yl)cyclopropyl]carbonyl}amino)-7-methoxy-3,4-dihydro-2H-chromen-2-yl]benzoic acid); read-out: EC50 (with co-corrector)
Give EC50 for every item shown.

Param item = "CCC(CC)Cc1cnc(OC)c(CN[C@H]2[C@H](C(C)(C)C)[C@@H](C(=O)O)N(C(=O)C3CCCCC3)[C@H]2c2ccccc2)c1" ; retrieve measured EC50. < 1 µM

Param item = Cc1cc(C(F)(F)F)cc(N[C@@H]2[C@@H](C(C)(C)C)[C@H](C(=O)NS(=O)(=O)C3(C)CC3)N(C(=O)C3CCCCC3)[C@@H]2c2ccccc2)n1 (racemic) ; retrieve measured EC50. 1 to 10 µM

Param item = "COc1ncc(-c2ccccc2F)cc1CN[C@H]1[C@H](C(C)(C)C)[C@@H](C(=O)O)N(C(=O)C2CCCCC2)[C@H]1c1cccnc1N(C)C" ; retrieve measured EC50. 1 to 10 µM

Param item = "COc1ccc(C(C)C)cc1CN[C@H]1[C@H](C(C)(C)C)[C@@H](C(=O)O)N(C(=O)C2CCCCC2)[C@H]1c1ccc(F)cc1" ; retrieve measured EC50. < 1 µM

Param item = "COc1ccc(C(C)(C)C)cc1CN[C@H]1[C@H](C(C)(C)C)[C@@H](C(=O)O)N(C(=O)OCC(C)(C)C)[C@H]1c1ccccc1" ; retrieve measured EC50. < 1 µM

Param item = COc1ccc(C(F)(F)F)cc1CN[C@@H]1[C@@H](C(C)(C)C)[C@H](C(=O)O)N(C(=O)C(C)Oc2ccccc2)[C@@H]1c1ccccc1 (relative stereo) ; retrieve measured EC50. 1 to 10 µM
